target: mouse TMEM16A mutant I512A (Mus musculus, UniProt Q8BHY3, I512A); construct: expressed in transfected cells; host or cells: HEK293T; assay: Inside-out patch recording of 1PBC block, mutant I512A; assay type: cell-based; conditions: I512A; V -60 mV
Sequence (Q8BHY3 whole entry I512A): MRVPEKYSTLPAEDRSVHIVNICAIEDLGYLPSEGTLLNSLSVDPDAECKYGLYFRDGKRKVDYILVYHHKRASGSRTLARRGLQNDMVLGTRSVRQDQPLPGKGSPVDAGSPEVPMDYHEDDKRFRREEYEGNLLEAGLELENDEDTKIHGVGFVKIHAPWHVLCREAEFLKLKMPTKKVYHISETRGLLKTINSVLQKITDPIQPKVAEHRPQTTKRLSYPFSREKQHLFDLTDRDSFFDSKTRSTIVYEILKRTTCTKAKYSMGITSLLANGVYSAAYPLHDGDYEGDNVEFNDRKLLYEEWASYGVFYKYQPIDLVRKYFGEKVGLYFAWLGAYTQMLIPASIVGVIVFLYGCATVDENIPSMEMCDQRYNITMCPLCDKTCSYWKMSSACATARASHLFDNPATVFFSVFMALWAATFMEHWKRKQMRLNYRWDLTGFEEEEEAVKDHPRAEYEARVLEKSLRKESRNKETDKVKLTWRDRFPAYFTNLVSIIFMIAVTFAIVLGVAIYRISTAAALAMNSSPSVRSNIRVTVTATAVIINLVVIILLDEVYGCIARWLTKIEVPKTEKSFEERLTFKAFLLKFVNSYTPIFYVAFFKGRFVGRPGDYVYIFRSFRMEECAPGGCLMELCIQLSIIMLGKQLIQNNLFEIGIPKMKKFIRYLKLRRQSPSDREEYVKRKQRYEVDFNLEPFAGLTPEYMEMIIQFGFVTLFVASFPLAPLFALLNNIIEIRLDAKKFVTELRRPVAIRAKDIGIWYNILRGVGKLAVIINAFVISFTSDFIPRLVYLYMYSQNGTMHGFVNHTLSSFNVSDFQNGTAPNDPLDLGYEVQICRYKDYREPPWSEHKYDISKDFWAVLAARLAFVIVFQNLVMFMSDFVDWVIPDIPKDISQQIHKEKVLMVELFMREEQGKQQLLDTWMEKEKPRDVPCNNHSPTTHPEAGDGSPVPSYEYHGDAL
Reported property: IC50 (µM)
Only the number, expressed in µM, is required.

Input: Looking for the measured IC50 of `N#Cc1c(C(F)(F)F)cc(O)n2c1nc1ccccc12` , can you help?
Output: 50.1

###

biological target: mouse TMEM16A mutant G510P (Mus musculus, UniProt Q8BHY3, G510P); construct: expressed in transfected cells; host or cells: HEK293T; experiment: Inside-out patch recording of 1PBC block, mutant G510P; format: cell-based; settings: 120 mV; 15 µM Ca2+
Sequence (Q8BHY3 whole entry G510P): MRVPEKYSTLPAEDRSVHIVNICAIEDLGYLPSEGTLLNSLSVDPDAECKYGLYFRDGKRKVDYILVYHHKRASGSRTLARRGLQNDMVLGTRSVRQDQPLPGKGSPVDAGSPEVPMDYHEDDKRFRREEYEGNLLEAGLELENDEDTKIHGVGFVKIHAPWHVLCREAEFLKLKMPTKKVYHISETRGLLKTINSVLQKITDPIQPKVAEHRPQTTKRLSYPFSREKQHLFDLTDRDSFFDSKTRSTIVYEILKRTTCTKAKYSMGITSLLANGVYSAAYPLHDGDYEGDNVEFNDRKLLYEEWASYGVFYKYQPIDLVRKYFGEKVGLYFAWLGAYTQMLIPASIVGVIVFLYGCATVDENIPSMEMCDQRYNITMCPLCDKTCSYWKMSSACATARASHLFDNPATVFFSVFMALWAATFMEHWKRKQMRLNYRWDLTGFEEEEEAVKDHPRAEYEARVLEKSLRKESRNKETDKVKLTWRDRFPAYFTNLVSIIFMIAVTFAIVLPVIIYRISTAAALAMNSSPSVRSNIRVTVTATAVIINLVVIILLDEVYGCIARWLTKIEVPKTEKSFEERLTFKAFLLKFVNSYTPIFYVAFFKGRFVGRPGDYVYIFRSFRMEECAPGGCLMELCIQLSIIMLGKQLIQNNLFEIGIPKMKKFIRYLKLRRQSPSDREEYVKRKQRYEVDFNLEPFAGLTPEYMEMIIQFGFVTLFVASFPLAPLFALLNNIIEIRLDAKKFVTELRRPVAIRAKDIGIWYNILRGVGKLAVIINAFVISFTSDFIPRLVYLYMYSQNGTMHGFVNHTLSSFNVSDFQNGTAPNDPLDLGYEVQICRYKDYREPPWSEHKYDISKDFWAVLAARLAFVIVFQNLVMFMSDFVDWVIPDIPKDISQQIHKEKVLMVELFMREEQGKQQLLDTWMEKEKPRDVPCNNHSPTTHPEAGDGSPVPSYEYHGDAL
Reported property: IC50
Please answer using the number first and the unit second.

Input: Looking for the measured IC50 of `N#Cc1c(C(F)(F)F)cc(O)n2c1nc1ccccc12` , can you help?
Output: 60.9 µM
